Test: binders of probe aHhip on microarray, primary screen, stem cell growth factor project, biochemical, small-molecule microarray, fluorescence 635/667 (AID 1087);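 also: score merges spot fluorescence at 667nm with spot signal to noise ratio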
Conditions: higher = more signal
Please respond with reported composite z-score for every item in the list.
No unit in the answer, please; the number alone is enough.

Which composite z-score reading was recorded for the molecule COCCOC(=O)N1C(=O)[C@@]2(c3cc(C#CC4(O)CCCCCC4)ccc31)[C@H](c1ccc(OCCO)cc1)N1[C@H](c3ccccc3)[C@H](c3ccccc3)OC(=O)[C@H]1[C@@H]2C(=O)N1CCN(c2ncccn2)CC1 ?
-0.0645

Which composite z-score reading was recorded for the molecule COc1ccc(C#Cc2ccc3c(c2)[C@]2(C(=O)N3)[C@H](c3ccccc3OCCO)N3[C@H](c4ccccc4)[C@H](c4ccccc4)OC(=O)[C@H]3[C@@H]2C(=O)Nc2nc3ccccc3s2)cc1 ?
-0.0618

Which composite z-score reading was recorded for the molecule O=C(CS)NCCCCCCNC(=O)[C@@H]1C[C@@H]2C(=O)N[C@@H](Cc3ccccc3)C(=O)N2[C@@H]1c1cccc(OCCO)c1 ?
-0.0994

Which composite z-score reading was recorded for the molecule COC(=O)c1c(CC[C@@H](CO)NC(=O)NCCn2cc(C3(O)CCCC3)nn2)oc(C(C)=O)c1C(=O)OC ?
-0.184

Which composite z-score reading was recorded for the molecule C=CCOC(=O)[C@H]1[C@@H]2C(=O)O[C@@H](c3ccccc3)[C@@H](c3ccccc3)N2[C@@H](c2ccc(OCCOC(=O)[C@H]3C[C@H]4C(=O)N[C@@H](CCCC[N+](C)(C)C)C(=O)N4[C@H]3c3ccc(O)cc3)cc2)[C@]12C(=O)Nc1ccc(I)cc12 ?
0.6

Which composite z-score reading was recorded for the molecule C=CCC(OC(C)=O)[C@@H]1[C@@H](N(Cc2ccc(-c3ccccc3)cc2)C(=O)Cc2ccc(OC)cc2)c2cc(OCCCO)ccc2N1C(=O)Cc1ccc2ccccc2c1 (stereo partly drawn) ?
-0.144

Which composite z-score reading was recorded for the molecule NC(=O)[C@@H]1[C@H]2C(=O)O[C@H](c3ccccc3)[C@H](c3ccccc3)N2[C@H](c2ccc(O)cc2)[C@@]12C(=O)Nc1ccccc12 ?
-0.314

Which composite z-score reading was recorded for the molecule O=C(N1CCCCC1)[C@]1(Cc2ccccc2)N=C(c2ccc(OCCCO)cc2)O[C@@H]1c1ccccc1 ?
0.289

Which composite z-score reading was recorded for the molecule COCCCNC(=O)[C@@H]1c2ccccc2C(=O)N(Cc2ccccc2Cl)[C@H]1c1ccc(CO)cc1 ?
-0.0237

Which composite z-score reading was recorded for the molecule CN1C(=O)C2C=CC(C(O)C#Cc3ccccc3)N(N3CCCCC3)C2C1=O (stereo not drawn) ?
-0.0655

Which composite z-score reading was recorded for the molecule C=CCC(OC(C)=O)[C@@H]1[C@@H](N(Cc2cccc3ccccc23)C(=O)c2ccc(-c3ccccc3)cc2)c2cc(OCCCO)ccc2N1C(=O)c1ccc2ccccc2c1 (stereo partly drawn) ?
0.0722

Which composite z-score reading was recorded for the molecule COC(=O)[C@@]1(Cc2ccc(OC)cc2)[C@H]2c3cc(C(=O)N(C)C)n(Cc4ccc(S(C)(=O)=O)cc4)c3C[C@H]2CN1C(=O)c1ccccc1 ?
0.296

Which composite z-score reading was recorded for the molecule COc1ccc([Si](C)(C)[C@@H]2[C@@H](CC(=O)N3CCC[C@H]3CO)O[C@]3(C(=O)N(c4ccccc4)c4ccccc43)[C@H]2C)cc1 ?
0.21
